- experimental-target: T1, human DR3 (full length, on cells) (human, UniProt Q93038 25-417)
- T1 construct: also called hDR3; Death Receptor 3
- T1 sequence: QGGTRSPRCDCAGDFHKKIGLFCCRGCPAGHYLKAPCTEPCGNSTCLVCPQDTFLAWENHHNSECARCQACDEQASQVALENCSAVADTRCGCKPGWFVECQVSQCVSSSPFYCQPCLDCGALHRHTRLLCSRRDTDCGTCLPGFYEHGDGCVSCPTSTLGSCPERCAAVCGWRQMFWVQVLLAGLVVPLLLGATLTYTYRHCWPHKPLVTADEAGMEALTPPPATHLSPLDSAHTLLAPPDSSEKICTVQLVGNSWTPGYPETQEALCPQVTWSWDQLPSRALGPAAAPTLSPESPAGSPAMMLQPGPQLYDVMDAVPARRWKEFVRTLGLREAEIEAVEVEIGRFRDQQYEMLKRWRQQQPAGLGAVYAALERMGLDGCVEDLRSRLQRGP
- run-description: flow cytometry on IL-12/IL-18/TL1A activated CD4+ T cells, 1 µg/ml
endpoint: MFI (MFI)
Value expressed in MFI; do not type the unit.

Worked set:
0072 (murine mAb purified from hybridoma 27F44A2) (antibody, mouse IgG1, V domains shown, murine IgG1, kappa; also called 0084) VH: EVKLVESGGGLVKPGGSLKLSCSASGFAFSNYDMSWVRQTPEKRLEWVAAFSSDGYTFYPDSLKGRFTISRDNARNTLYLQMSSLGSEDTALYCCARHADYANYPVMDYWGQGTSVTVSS VL: DIVLAQSPASLLVSLGQRATISCRASKSVSTSGYSYMHWYQQKPGQPPKLLIYLASNLESGVPARFSGSGSGTDFTLNIHPVEEEDAATYYCQHSRELPLTFGAGTMLELKR ... 1300
0073 (murine mAb purified from hybridoma 28F26A3) (antibody, V domains shown, murine IgG2a, kappa; also called 0085) VH: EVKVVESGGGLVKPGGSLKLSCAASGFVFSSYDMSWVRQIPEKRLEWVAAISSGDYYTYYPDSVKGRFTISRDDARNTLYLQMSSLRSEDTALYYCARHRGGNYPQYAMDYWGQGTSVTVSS VL: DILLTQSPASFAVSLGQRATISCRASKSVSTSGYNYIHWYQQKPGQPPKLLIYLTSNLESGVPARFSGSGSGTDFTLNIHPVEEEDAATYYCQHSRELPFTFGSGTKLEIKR ... 1300
0088 (Fab from papain cleavage of mAb 0073) (Fab, V domains shown, murine IgG2a Fab by papain cleavage) VH: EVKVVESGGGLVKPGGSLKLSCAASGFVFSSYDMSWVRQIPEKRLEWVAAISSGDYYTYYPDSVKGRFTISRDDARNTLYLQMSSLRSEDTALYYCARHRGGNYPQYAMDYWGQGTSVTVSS VL: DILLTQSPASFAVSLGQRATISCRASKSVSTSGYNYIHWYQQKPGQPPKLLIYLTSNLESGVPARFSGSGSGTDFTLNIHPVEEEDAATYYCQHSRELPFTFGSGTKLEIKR ... 500

Below: the item to evaluate.
Exam item: Need MFI, item 0087 (Fab from papain cleavage of mAb 0072) (Fab, V domains shown, murine IgG1 Fab by papain cleavage) VH: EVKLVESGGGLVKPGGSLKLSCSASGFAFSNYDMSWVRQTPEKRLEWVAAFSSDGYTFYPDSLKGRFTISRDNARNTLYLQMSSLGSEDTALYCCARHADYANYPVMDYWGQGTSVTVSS VL: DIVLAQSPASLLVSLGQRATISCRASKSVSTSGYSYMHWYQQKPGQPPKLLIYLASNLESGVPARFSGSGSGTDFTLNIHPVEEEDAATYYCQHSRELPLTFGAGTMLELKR
Marked response: 500

Origin of the recorded values: patent US20170305994A1
